- ASSAY_NOTES: Confirmation Concentration-Response Assay for Enhancers of SMN2 Splice Variant Expression for Probe SAR
- CONDITION_DETAILS: HEK293 SMN2 exon7 splicing luciferase reporter, luminescence; series mostly up to 46.1 µM
Results filed as inconclusive are left out. Active and inactive are the calls of the source. Calls come from the whole dose curve; as a rule, active = well fitted activation curve with a large enough effect; inconclusive = small, poorly fitted or top-dose-only effect; inactive = no such curve, though single readings can be large or run the other way.
Write down one outcome, taken from active, inactive

Known results for molecules:
INSERT INTO measurements (smiles_record, qualitative_label) VALUES
  ('NC(=O)C1CCN(c2nc(-c3ccccc3F)cs2)CC1', 'active'),
  ('NC(=O)C1CCN(c2nc(-c3cccnc3)cs2)CC1', 'inactive'),
  ('NC(=O)C1CCN(c2nc(-c3ccccc3C(F)(F)F)cs2)CC1', 'inactive'),
  ('COc1ccc(-c2csc(N3CCC(C(N)=O)CC3)n2)cc1', 'active'),
  ('NC(=O)C1CCN(c2nc(-c3ccccc3Br)cs2)CC1', 'inactive'),
  ('NC(=O)C1CCN(c2nc(-c3ccccc3-c3ccccc3)cs2)CC1', 'inactive'),
  ('CC(=O)c1cccc(-c2csc(N3CCC(C(N)=O)CC3)n2)c1', 'active'),
  ('NC(=O)C1CCN(c2nc(-c3cccc(N)c3)cs2)CC1', 'inactive');

What did this assay record as the result for NC(=O)C1CCN(c2nc(-c3cc4ccccc4o3)cs2)CC1 ?
active

What was the test verdict on Cn1ccc2cc(-c3csc(N4CCC(C(N)=O)CC4)n3)ccc21 ?
active

Give the logged outcome of this assay for the following molecule: NC(=O)C1CCN(c2nc(-c3cccs3)cs2)CC1
active

What outcome does the record of this test show for Cc1ccc(-c2csc(N3CCC(C(N)=O)CC3)n2)cc1 ?
active
